Source of measurements: ChEMBL document CHEMBL1122415

Tested on: Mus musculus
Method Description: Antimalarial effect against trophozoite-induced Plasmodium berghei in mice (Mus musculus) after subcutaneous administration dose of 640 mg/kg
Assay type: functional
Listing of recorded Delta MST by entry.
Value expressed in days; do not type the unit.

Worked cases, Delta MST given:
- Structure Smiles: "Nc1nc(N)c2cc(CN(C=O)c3ccc4cc(Cl)ccc4c3)ccc2n1"
  Delta MST / days: 16.9
- Structure Smiles: "CC(=O)O.Nc1nc(N)c2cc(CNc3cc(Cl)cc(Cl)c3)ccc2n1.O.O"
  Delta MST / days: 13.7
- Structure Smiles: "Nc1nc(N)c2cc(CN(C=O)c3ccc(Cl)c(C(F)(F)F)c3)ccc2n1"
  Delta MST / days: 9.9

Field: next molecule
Inquiry: Which measured Delta MST value corresponds to "CC(=O)O.Nc1nc(N)c2cc(CNc3cccc(Cl)c3)ccc2n1.O.O" ?
Reply text: 9.9
